The origin of these recorded values is ChEMBL document CHEMBL4689842.

test system: U2OS; assay: Multiplex assay against U2OS; type: toxicity, cell-based; settings: human, 24 h, 10 µM, compound concentration 10 uM, replicate 2
Reported Total Cell Count by item:
Number, no unit, nothing else.

Past entries and their recorded results:
- COMPOUND: "C=CCn1c(=O)c2cnc(Nc3ccc(N4CCN(C)CC4)cc3)nc2n1-c1cccc(C(C)(C)O)n1 [ADAVOSERTIB]"
  Total Cell Count: 67
- COMPOUND: "Cc1ccc2nc(NCCN)c3ncc(C)n3c2c1.O=C(O)C(F)(F)F.O=C(O)C(F)(F)F"
  Total Cell Count: 106
- COMPOUND: "O=C(Nc1cccnn1)N1CCC(=Cc2cccc(Oc3ccc(C(F)(F)F)cn3)c2)CC1"
  Total Cell Count: 231

From here, focus on the item given below.
Challenge: Would you mind telling me what Total Cell Count value was observed for COc1cc(N2CCN(C)CC2)ccc1Nc1ncc2c(n1)N(C)c1ccccc1C(=O)N2C ?
Response given: 44
